Catalogue of abundance fitness readings, one per entry.
B1: Chromodomain-helicase-DNA-binding protein 3, residues 374 to 426; numbered along this chain, Q12873 (parent)
chain: YETDHQDYCEVCQQGGEIILCDTCPRAYHLVCLDPELDRAPEGKWSCPHCEKE

variants of: B1; assay: abundance fitness (aPCA) (normalised: wild type 0, dead -1); higher = more abundant; growth selection in yeast, the domain comes from the species named; details: Homo sapiens
Note: the reply should be a number with no unit written.

1. V11L : 0.145
2. C32T : -0.948
3. C21I : -0.818
4. L20E : -0.003
5. D4F : -0.055

abundance fitness in this record for Y8K : 0.141

The measured abundance fitness associated with H29W reads -0.656
